Recorded values, source ChEMBL document CHEMBL4002627.

Tested on: Mycobacterium tuberculosis
ASSAY INFO: Antimycobacterial activity against dormant state of Mycobacterium bovis BCG by two fold dilution method
Format: functional
TEST CONTEXT: variant bovis BCG
READOUT LABEL: MIC90 (µg/mL)
# output: bare number, implied unit µg/mL

Given item CN1C/C(=C\c2cc3ccccc3nc2Cl)C(=O)/C(=C/c2cc3ccccc3nc2Cl)C1 , the value recorded as its MIC90 is 7.3

Per the record, COc1ccc2cc(/C=C3\CN(C)C/C(=C\c4cc5ccc(OC)cc5nc4Cl)C3=O)c(Cl)nc2c1 has MIC90 of 9.4

Sure, the documented MIC90 for CN1C/C(=C\c2cc3cc(Cl)ccc3nc2Cl)C(=O)/C(=C/c2cc3cc(Cl)ccc3nc2Cl)C1 is 21.5

Looking up Cc1ccc2cc(/C=C3\CN(C)C/C(=C\c4cc5ccc(C)cc5nc4Cl)C3=O)c(Cl)nc2c1 , I found its MIC90 recorded as 15.4

----------
System: Mycobacterium tuberculosis
ASSAY INFO: Antimycobacterial activity against dormant state of Mycobacterium bovis BCG by two fold dilution method
Assay type: functional
TEST CONTEXT: variant bovis BCG
READOUT LABEL: MIC90 (µg/mL)
Write the number in µg/mL without appending the unit.

Reference set (3 entries):
{"COMPOUND": "COc1ccc2nc(Cl)c(/C=C3\\CNC/C(=C\\c4cc5cc(OC)ccc5nc4Cl)C3=O)cc2c1", "STUDY TARGET": "Mycobacterium tuberculosis", "MIC90 (µg/mL)": 27.2}
{"COMPOUND": "COc1ccc2cc(/C=C3\\CNC/C(=C\\c4cc5ccc(OC)cc5nc4Cl)C3=O)c(Cl)nc2c1", "STUDY TARGET": "Mycobacterium tuberculosis", "MIC90 (µg/mL)": 2.7}
{"COMPOUND": "O=C1/C(=C/c2cc3cc(F)ccc3nc2Cl)CNC/C1=C\\c1cc2cc(F)ccc2nc1Cl", "STUDY TARGET": "Mycobacterium tuberculosis", "MIC90 (µg/mL)": 9.2}

Note to self: MIC90 recorded for CO[C@H]1/C=C/O[C@@]2(C)Oc3c(C)c(O)c4c(O)c(c(/C=N/N5CCN(C)CC5)c(O)c4c3C2=O)NC(=O)/C(C)=C\C=C\[C@H](C)[C@H](O)[C@@H](C)[C@@H](O)[C@@H](C)[C@H](OC(C)=O)[C@@H]1C [RIFAMPIN] was 0.0173
